test system: Escherichia coli TOP10; assay: shrunken log2 fold change of peptide-encoding DNA abundance (4.5 h post-induction vs induction); higher = less antimicrobial activity (less host growth inhibition); details: time post-induction: 4.5 h; library: site-saturation at positions 5, 18, 19, 20
Label class 1 when shrunken log2 fold change is at or above -0.02; otherwise label class 0.

### Prompt Record `RRIRQRPPRLPRPRPRPKVTPRP` ; criterion: shrunken log2 fold change no lower than -0.02. Met?
### Response class 1

### Prompt Record `RRIRMRPPRLPRPRPRPLHGPRP` ; criterion: shrunken log2 fold change no lower than -0.02. Met?
### Response class 1

### Prompt Record `RRIRRRPPRLPRPRPRPLINPRP` ; criterion: shrunken log2 fold change no lower than -0.02. Met?
### Response class 1

### Prompt Record `RRIRNRPPRLPRPRPRPFLSPRP` ; criterion: shrunken log2 fold change no lower than -0.02. Met?
### Response class 0

### Prompt Record `RRIRDRPPRLPRPRPRPRRQPRP` ; criterion: shrunken log2 fold change no lower than -0.02. Met?
### Response class 1

### Prompt Record `RRIRERPPRLPRPRPRPRCNPRP` ; criterion: shrunken log2 fold change no lower than -0.02. Met?
### Response class 0

### Prompt Record `RRIRARPPRLPRPRPRPSMFPRP` ; criterion: shrunken log2 fold change no lower than -0.02. Met?
### Response class 1

### Prompt Record `RRIRTRPPRLPRPRPRPKVTPRP` ; criterion: shrunken log2 fold change no lower than -0.02. Met?
### Response class 0

### Prompt Record `RRIRPRPPRLPRPRPRPLMCPRP` ; criterion: shrunken log2 fold change no lower than -0.02. Met?
### Response class 0

### Prompt Record `RRIRYRPPRLPRPRPRPIIYPRP` ; criterion: shrunken log2 fold change no lower than -0.02. Met?
### Response class 0

### Prompt Record `RRIRFRPPRLPRPRPRPQKMPRP` ; criterion: shrunken log2 fold change no lower than -0.02. Met?
### Response class 0

### Prompt Record `RRIRQRPPRLPRPRPRPAAVPRP` ; criterion: shrunken log2 fold change no lower than -0.02. Met?
### Response class 0

### Prompt Record `RRIRNRPPRLPRPRPRPEYVPRP` ; criterion: shrunken log2 fold change no lower than -0.02. Met?
### Response class 0

### Prompt Record `RRIRPRPPRLPRPRPRPTHLPRP` ; criterion: shrunken log2 fold change no lower than -0.02. Met?
### Response class 1

### Prompt Record `RRIRQRPPRLPRPRPRPWATPRP` ; criterion: shrunken log2 fold change no lower than -0.02. Met?
### Response class 1

* * *

system: Escherichia coli TOP10; test: shrunken log2 fold change of peptide-encoding DNA abundance (4.5 h post-induction vs induction); higher = less antimicrobial activity (less host growth inhibition); details: time post-induction: 4.5 h; library: site-saturation at positions 5, 18, 19, 20;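 also: peptides expressed intracellularly from a pBAD plasmid library in pooled LB shake-flask culture, induced with 0.3% L-arabinose, DNA abundance read by NGS, three biological replicates, DESeq2 with apeglm shrinkage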
Label t when shrunken log2 fold change is at or above -0.03; otherwise label f.

### Prompt Record `RRIRTRPPRLPRPRPRPLRFPRP` ; criterion: shrunken log2 fold change no lower than -0.03. Met?
### Response t

### Prompt Record `RRIRQRPPRLPRPRPRPEAEPRP` ; criterion: shrunken log2 fold change no lower than -0.03. Met?
### Response t

### Prompt Record `RRIRTRPPRLPRPRPRPEKLPRP` ; criterion: shrunken log2 fold change no lower than -0.03. Met?
### Response t

### Prompt Record `RRIRERPPRLPRPRPRPFSEPRP` ; criterion: shrunken log2 fold change no lower than -0.03. Met?
### Response t

### Prompt Record `RRIRCRPPRLPRPRPRPARVPRP` ; criterion: shrunken log2 fold change no lower than -0.03. Met?
### Response t

### Prompt Record `RRIRERPPRLPRPRPRPCVMPRP` ; criterion: shrunken log2 fold change no lower than -0.03. Met?
### Response f

### Prompt Record `RRIRKRPPRLPRPRPRPVDTPRP` ; criterion: shrunken log2 fold change no lower than -0.03. Met?
### Response t

### Prompt Record `RRIRPRPPRLPRPRPRPWKPPRP` ; criterion: shrunken log2 fold change no lower than -0.03. Met?
### Response f

### Prompt Record `RRIRYRPPRLPRPRPRPFIRPRP` ; criterion: shrunken log2 fold change no lower than -0.03. Met?
### Response f

### Prompt Record `RRIRPRPPRLPRPRPRPFGYPRP` ; criterion: shrunken log2 fold change no lower than -0.03. Met?
### Response f

### Prompt Record `RRIRMRPPRLPRPRPRPSCVPRP` ; criterion: shrunken log2 fold change no lower than -0.03. Met?
### Response t

### Prompt Record `RRIRDRPPRLPRPRPRPLFGPRP` ; criterion: shrunken log2 fold change no lower than -0.03. Met?
### Response t

### Prompt Record `RRIRTRPPRLPRPRPRPWNGPRP` ; criterion: shrunken log2 fold change no lower than -0.03. Met?
### Response f

### Prompt Record `RRIRFRPPRLPRPRPRPFRSPRP` ; criterion: shrunken log2 fold change no lower than -0.03. Met?
### Response f

### Prompt Record `RRIRPRPPRLPRPRPRPWELPRP` ; criterion: shrunken log2 fold change no lower than -0.03. Met?
### Response t

### Prompt Record `RRIRFRPPRLPRPRPRPWPKPRP` ; criterion: shrunken log2 fold change no lower than -0.03. Met?
### Response t

### Prompt Record `RRIRYRPPRLPRPRPRPDPWPRP` ; criterion: shrunken log2 fold change no lower than -0.03. Met?
### Response f

### Prompt Record `RRIRLRPPRLPRPRPRPFTAPRP` ; criterion: shrunken log2 fold change no lower than -0.03. Met?
### Response f

### Prompt Record `RRIRMRPPRLPRPRPRPGLKPRP` ; criterion: shrunken log2 fold change no lower than -0.03. Met?
### Response t

### Prompt Record `RRIRVRPPRLPRPRPRPITFPRP` ; criterion: shrunken log2 fold change no lower than -0.03. Met?
### Response f

### Prompt Record `RRIRWRPPRLPRPRPRPKMVPRP` ; criterion: shrunken log2 fold change no lower than -0.03. Met?
### Response t

### Prompt Record `RRIRWRPPRLPRPRPRPEVQPRP` ; criterion: shrunken log2 fold change no lower than -0.03. Met?
### Response t

### Prompt Record `RRIRERPPRLPRPRPRPEVGPRP` ; criterion: shrunken log2 fold change no lower than -0.03. Met?
### Response t

### Prompt Record `RRIRGRPPRLPRPRPRPEGNPRP` ; criterion: shrunken log2 fold change no lower than -0.03. Met?
### Response t

### Prompt Record `RRIRVRPPRLPRPRPRPRKEPRP` ; criterion: shrunken log2 fold change no lower than -0.03. Met?
### Response t

### Prompt Record `RRIRFRPPRLPRPRPRPCKSPRP` ; criterion: shrunken log2 fold change no lower than -0.03. Met?
### Response f

### Prompt Record `RRIRMRPPRLPRPRPRPTWIPRP` ; criterion: shrunken log2 fold change no lower than -0.03. Met?
### Response t

### Prompt Record `RRIRDRPPRLPRPRPRPRSNPRP` ; criterion: shrunken log2 fold change no lower than -0.03. Met?
### Response t

### Prompt Record `RRIRFRPPRLPRPRPRPDDCPRP` ; criterion: shrunken log2 fold change no lower than -0.03. Met?
### Response t

### Prompt Record `RRIRCRPPRLPRPRPRPAEPPRP` ; criterion: shrunken log2 fold change no lower than -0.03. Met?
### Response t

### Prompt Record `RRIRKRPPRLPRPRPRPRFHPRP` ; criterion: shrunken log2 fold change no lower than -0.03. Met?
### Response t
